- System: SF-268 CNS
- measurement-description: NCI-60 one-dose screen, 48 h
- condition-description: 10 µM unless noted
About 83,000 compounds went through this panel and 20% of them were active in at least one assay; those are over-represented in the sample as a whole. Calls of active or inactive are those of the source. The calls were made as follows: active = growth percent below 10; inactive = the rest.
Parameter call: string, one of label 1 (active), label 0 (inactive)

Reference set, count: 3
QUERY: For O=C(Cn1c2ccccc2c2ccncc21)N/N=C/c1cc(O)c(O)c(O)c1 , what call appears in the results of this test?
RESULT: label 0

QUERY: For FC(F)(F)c1cn(CCN2CCOCC2)c2ncnc(Cl)c12 , what call appears in the results of this test?
RESULT: label 0

QUERY: For CC1(C)CC(=O)C2=C(C1)OC1=C(C(=O)CC(C)(C)C1)C2c1ccc(OCc2cn(-c3ccc(F)cc3F)nn2)cc1 , what call appears in the results of this test?
RESULT: label 0

***
QUERY: For O=C1CN(CCN2CC(=O)NC(=O)C2)CC(=O)N1 , what call appears in the results of this test?
RESULT: label 0

QUERY: For CCNc1cc(S(=O)(=O)O)ccc1C , what call appears in the results of this test?
RESULT: label 0

QUERY: For CC(CN(C)C)CN1c2ccccc2CCc2ccccc21 (centres undefined) , what call appears in the results of this test?
RESULT: label 0

QUERY: For COc1ccc(Cn2cc3c(c2-c2cc(OC)c(OC)c(OC)c2)CCc2c(CO)noc2-3)cc1 , what call appears in the results of this test?
RESULT: label 0

QUERY: For COc1cc(C(=O)NNC(=O)c2ccccc2O)cc(OC)c1OC , what call appears in the results of this test?
RESULT: label 0

QUERY: For Cc1c(C(C)(C)C)cc(C(C)(C)C)c2c1CN(C)CO2 , what call appears in the results of this test?
RESULT: label 0

QUERY: For CN(C)c1ncc(C#Cc2c(F)cccc2F)c2ccccc12 , what call appears in the results of this test?
RESULT: label 0

QUERY: For c1ccc2c(c1)Oc1cccnc1-n1nccc1-2 , what call appears in the results of this test?
RESULT: label 0

QUERY: For COc1ccc(-c2nnc(SCC(=O)Nc3ccc(C(=O)/C=C/c4ccc(Cl)cc4)cc3)o2)cc1OC , what call appears in the results of this test?
RESULT: label 0

QUERY: For CSc1ccc(C(=O)C[n+]2cccc(C)c2)cc1 , what call appears in the results of this test?
RESULT: label 0

QUERY: For COc1cc(Nc2ncccc2C(=O)Nc2nc3ccc(F)cc3s2)cc(OC)c1OC , what call appears in the results of this test?
RESULT: label 0

QUERY: For O=C(O)c1cc2ccccc2cc1Nc1ccccc1 , what call appears in the results of this test?
RESULT: label 0

QUERY: For O=C(NOC1OC(CO)C(O)C(O)C1O)Nc1ccccc1 (centres undefined) , what call appears in the results of this test?
RESULT: label 0

QUERY: For C=CC(=O)NC(=O)Nc1ccccc1Cl , what call appears in the results of this test?
RESULT: label 0

QUERY: For Cc1[nH]c2ccc(F)cc2c1CCNC(=O)C1CCN(C(=O)c2ccc(-c3ccccc3)cc2)CC1 , what call appears in the results of this test?
RESULT: label 0

QUERY: For COC(OC)C1(c2ccccc2)NC(=O)NC1=O (centres undefined) , what call appears in the results of this test?
RESULT: label 0

QUERY: For COc1ccc(-c2nnc(SCC(=O)Nc3ccc(C(=O)/C=C/c4ccc(OC)c(OC)c4)cc3)o2)cc1 , what call appears in the results of this test?
RESULT: label 0

QUERY: For C=C1C(=O)O[C@H]2[C@H]1CC/C(COC(=O)c1cc(OC)c(OC)c(OC)c1)=C\CC[C@@]1(C)O[C@@H]21 , what call appears in the results of this test?
RESULT: label 0
